- protocolSummary: determination of log P values by HPLC on a reversed-phase column (C18), EEC Directive 79/831 Annex V.A8
- Assay type: physicochemical
- testSettings: reversed-phase C18 HPLC column (Zorbax Eclipse Plus C18); HPLC-MS method a): Zorbax Eclipse Plus C18; acetonitrile (0.1% formic acid) / water (0.09% formic acid), gradient 10% to 95% acetonitrile, 55° C.; read-out: log P
Exercise: for every item that follows, state its recorded chromatographic logP.
Number only, please.

Look up chromatographic logP for this compound: CN(C(=O)c1cc(-c2cnn(-c3c(Cl)cc(C(F)(C(F)(F)F)C(F)(F)F)cc3Cl)c2)cnc1Cl)C1(C#N)CC1
4.31

Query: chromatographic logP; subject: FC(F)(F)c1cc(C(F)(C(F)(F)F)C(F)(F)F)cc(Br)c1-n1cccn1
4.42

For N#CC1(NC(=O)c2cc(-c3cnn(-c4c(Cl)cc(C(F)(C(F)(F)F)C(F)(F)F)cc4Cl)c3)cnc2Cl)CC1 , what is its reported chromatographic logP?
3.81

Bench note: what chromatographic logP did Cc1cc(C(F)(C(F)(F)F)C(F)(F)F)cc(C)c1-n1cc(-c2cnc(Cl)c(C(=O)NC3(C#N)CC3)c2)cn1 show?
3.87

Any idea what chromatographic logP was measured for CN(C(=O)c1cc(-c2cnn(-c3c(Cl)cc(C(F)(C(F)(F)F)C(F)(F)F)cc3C(F)(F)F)c2)cnc1Cl)C1CC1 ?
4.46

I have this compound here, Cc1cc(C(F)(C(F)(F)F)C(F)(F)F)cc(C)c1-n1cc(I)cn1 , and I need its recorded chromatographic logP.
5.2

May I ask what chromatographic logP has been recorded for FC(F)(F)c1cc(C(F)(C(F)(F)F)C(F)(F)F)cc(Br)c1-n1cc(I)cn1 ?
5.22

For the compound shown here, O=C(NC1CC1)c1cc(-c2cnn(-c3c(Cl)cc(C(F)(C(F)(F)F)C(F)(F)F)cc3OC(F)(F)F)c2)cnc1Cl , give the reported chromatographic logP.
4.28

Quick one: chromatographic logP of O=C(NC1CC1)c1cc(-c2cnn(-c3c(Br)cc(C(F)(C(F)(F)F)C(F)(F)F)cc3OC(F)(F)F)c2)cnc1Cl ?
4.25

Value lookup for chromatographic logP; key = Cc1cc(C(F)(C(F)(F)F)C(F)(F)F)cc(C(F)(F)F)c1-n1cccn1
4.4

Request the reported chromatographic logP associated with FC(F)Oc1cc(C(F)(C(F)(F)F)C(F)(F)F)cc(Cl)c1-n1cc(I)cn1
4.82

May I ask what chromatographic logP has been recorded for Cc1cc(C(F)(C(F)(F)F)C(F)(F)F)cc(C)c1-n1cccn1 ?
4.3

Which chromatographic logP reading was recorded for the compound FC(F)(F)c1cc(C(F)(C(F)(F)F)C(F)(F)F)cc(Cl)c1-n1cc(I)cn1 ?
5.19

# chromatographic logP lookup, item FC(F)(F)C(F)(c1cc(Cl)c(-n2cc(Br)cn2)c(Cl)c1)C(F)(F)F
5.07

Please report the recorded chromatographic logP for CN(C(=O)c1cc(-c2cnn(-c3c(Cl)cc(C(F)(C(F)(F)F)C(F)(F)F)cc3Cl)c2)cnc1Cl)C1CC1 .
4.36

Fill in: chromatographic logP of CN(C(=O)c1cc(-c2cnn(-c3c(Cl)cc(C(F)(C(F)(F)F)C(F)(F)F)cc3OC(F)(F)F)c2)cnc1Cl)C1CC1 is ___
4.56

Which value of chromatographic logP has been reported for FC(F)(F)c1cc(C(F)(C(F)(F)F)C(F)(F)F)cc(Cl)c1-n1cccn1 in the records?
4.38

Where do these numbers come from? They come from patent US10981888B2.
